measured_property: melting point

What does the data say about its melting point? Entry: COc1ccc(CNc2nccc(-c3cn[nH]c3-c3ccc(F)cc3)n2)cc1 183 to 185 °C

Name the recorded melting point for [O-][S+](c1[nH]nc(-c2ccc(Cl)cc2)c1-c1ccncc1)C1CCNCC1 (stereo not drawn) . 189.1 to 190.8 °C

Field request: melting point | item: CC(C)(C)c1ccc(C(=O)C(=C2SCS2)c2ccncc2)cc1 172.1 to 173.1 °C

What measured melting point goes with CSc1[nH]nc(-c2ccc(F)cc2)c1-c1ccncc1 ? 249.9 °C

Dear colleague, I am looking for the recorded melting point of the following compound: Cc1cccc(-c2[nH]nc(C(F)(F)F)c2-c2ccncc2)c1 237 to 239 °C

Look at this compound and give its reported melting point. O=C1CN(Cc2ccccc2)CC(=O)N1c1[nH]nc(-c2ccc(Cl)cc2)c1-c1ccncc1 > 300 °C

Recorded melting point of Clc1ccc(-c2n[nH]c(SC3CCNCC3)c2-c2ccncc2)cc1 , please. 211.1 to 211.2 °C

For the compound shown here, Cc1n[nH]c(-c2ccccc2)c1-c1ccncc1 , give the reported melting point. 212 to 214 °C

Which melting point is listed for Clc1ccc(-c2[nH]nc(N3CCNCC3)c2-c2ccncc2)cc1 ? 264 to 265 °C
